# study target: GCC-bOBP (monomeric triple mutant of bovine odorant binding protein) (Bos taurus, UniProt P07435, W64C/INS121G/H155C)
# Construct: GCC-bOBP, deswapped monomeric triple mutant
# Sequence (P07435 with tags, fused parts or gaps W64C/INS121G/H155C): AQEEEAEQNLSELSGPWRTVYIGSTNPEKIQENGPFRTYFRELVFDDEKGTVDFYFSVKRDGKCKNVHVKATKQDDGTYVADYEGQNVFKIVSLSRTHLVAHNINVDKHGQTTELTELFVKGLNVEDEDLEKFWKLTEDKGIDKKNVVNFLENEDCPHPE
# experiment description: fluorescence titration (direct AMA fluorescence, excitation […] nm; FRET from Trp, excitation […] nm, gave Kd […]), pH […] °C
quantity measured: Kd (µM)
Give the quantity in µM, number only.

// lookup Kd for Nc1cccc2cc3ccccc3cc12 [AMA, 1-aminoanthracene]
5
